B1: C9orf25 (parent)
chain: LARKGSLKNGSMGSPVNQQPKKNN

variants of: B1; experiment: protein stability index of a GFP-peptide fusion (GPS, HEK-293T) (PSI 1-6); higher = more stable; details: c terminus: a fixed tail appended;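 note: lentivirally expressed fusions sorted by FACS into six bins by GFP to DsRed ratio, PSI derived from sequencing read proportions per bin multiplied by bin number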
Each entry below lists one item and its recorded protein stability index value.
Simply state the number, no unit and no words.

Some variants with recorded protein stability index:
What does the data say about its protein stability index? Entry: N23S
4.58

What does the data say about its protein stability index? Entry: M12S
4.94

What does the data say about its protein stability index? Entry: Q19K
4.22

What does the data say about its protein stability index? Entry: G13N
4.97

What does the data say about its protein stability index? Entry: Q19R
4.45

New cases:
What does the data say about its protein stability index? Entry: K21N
4.65

What does the data say about its protein stability index? Entry: A2F
4.04

What does the data say about its protein stability index? Entry: L7I
4.56
